Each entry below carries its recorded EMax, OVCAR 5 cells (cAMP).
Biological target: T1, RXFP1 receptor (endogenous, on OVCAR5 cells) (UniProt Q9HBX9 1-757, limits assumed)
T1 sequence (looked up): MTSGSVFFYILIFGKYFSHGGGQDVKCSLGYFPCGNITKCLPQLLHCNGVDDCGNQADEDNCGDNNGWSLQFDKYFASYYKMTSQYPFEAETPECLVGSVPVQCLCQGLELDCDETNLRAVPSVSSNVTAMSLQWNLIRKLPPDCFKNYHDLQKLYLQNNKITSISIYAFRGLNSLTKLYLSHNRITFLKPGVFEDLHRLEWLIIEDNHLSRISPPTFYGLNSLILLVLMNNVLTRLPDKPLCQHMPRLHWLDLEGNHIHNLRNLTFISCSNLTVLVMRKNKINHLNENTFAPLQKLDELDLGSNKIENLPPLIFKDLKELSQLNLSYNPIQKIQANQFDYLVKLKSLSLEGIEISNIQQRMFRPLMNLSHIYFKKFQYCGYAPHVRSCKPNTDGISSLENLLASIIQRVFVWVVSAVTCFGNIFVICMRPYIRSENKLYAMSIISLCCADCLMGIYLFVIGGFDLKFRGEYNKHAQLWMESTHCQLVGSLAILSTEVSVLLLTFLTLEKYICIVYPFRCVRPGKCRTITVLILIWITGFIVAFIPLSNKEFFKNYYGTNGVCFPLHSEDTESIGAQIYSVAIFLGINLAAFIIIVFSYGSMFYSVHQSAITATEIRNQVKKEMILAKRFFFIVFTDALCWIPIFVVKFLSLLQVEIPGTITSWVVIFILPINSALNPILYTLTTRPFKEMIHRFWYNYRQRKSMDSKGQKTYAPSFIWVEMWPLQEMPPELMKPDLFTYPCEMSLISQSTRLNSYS
Assay: cell-based or functional assay
Starred links: 1 amine or outer side, 2 acyl side, 3 side chain; linkers in the order of their positions; H or OH if unused. Non-standard residues stand in square brackets, D forms with d. Groups on a side chain read outwards from the residue. *: point of attachment. TTDS = 4-[3-[2-[2-(3-aminopropoxy)ethoxy]ethoxy]propylamino]-4-oxo-butanoyl; Phe(4-F) = N[C@@H](Cc1ccc(F)cc1)C(=O)O; γGlu = O=C(O)[C@H](CCC(=O)[*:2])N[*:1]; Palmitoyl = CCCCCCCCCCCCCCCC(=O)*; hLys = NCCCCC[C@H](N)C(=O)O; Aib = CC(C)(N)C(=O)O
property_label: EMax, OVCAR 5 cells (cAMP) (%)

Ac-LEGREKVRAK(Ac)I[Aib][Aib]EGK([TTDS-TTDS-TTDS-γGlu-γGlu-γGlu-Palmitoyl])STF[Aib]KRAK(Ac)-NH2 [peptide of SEQ ID NO: 15] : 85
Ac-LEGRERVRAK(Ac)I[Aib][Aib]EGK([TTDS-TTDS-TTDS-γGlu-γGlu-γGlu-Palmitoyl])ST[Phe(4-F)]S[Aib]RRK(Ac)-NH2 [peptide of SEQ ID NO: 91] : 97
Ac-LEGREKVRAK(Ac)I[Aib][Aib]EGK([TTDS-TTDS-TTDS-γGlu-γGlu-γGlu-Palmitoyl])STFTRRAK(Ac)-NH2 [peptide of SEQ ID NO: 93] : 86
Ac-LEGREKVRAK(Ac)I[Aib][Aib]EGK([TTDS-TTDS-TTDS-γGlu-γGlu-γGlu-Palmitoyl])STFS[hLys]RAK(Ac)-NH2 [peptide of SEQ ID NO: 88] : 96
